inhibition at 0.1 µM values by entry
target: human CA-II (Homo sapiens); construct: purchased Sigma-Aldrich C6165; test: Carbonic Anhydrase-II (CA-II) Fluorimetric Assay-IC50 Determination; assay type: biochemical; conditions: at 100 nM (c7); read-out: CA-II % inhibition at concentration of column 7

| compound | inhibition at 0.1 µM (%) |
| --- | --- |
| CCN(CCOC)C(=O)c1nc(Cc2ccccc2)n(-c2ccc(S(N)(=O)=O)cc2)n1 [Example R-34] | 99 |
| NS(=O)(=O)c1ccc(-n2nc(C(=O)N3CC4CCCC3C4)nc2Cc2ccccc2)cc1 (centres unmarked) [Example R-26] | 99 |
| NS(=O)(=O)c1ccc(-n2nc(C(=O)NC3Cc4ccccc4C3)nc2Cc2ccccc2)cc1 [Example R-33] | 101 |
| CCCCN(CCC)C(=O)c1nc(Cc2ccccc2)n(-c2ccc(S(N)(=O)=O)cc2)n1 [Example R-36] | 100 |
| CCN(CCC#N)C(=O)c1nc(Cc2ccccc2)n(-c2ccc(S(N)(=O)=O)cc2)n1 [Example R-41] | 99 |
| NS(=O)(=O)c1ccc(-n2nc(C(=O)NCCNc3ccccn3)nc2Cc2ccccc2)cc1 [Example R-35] | 101 |
| CN(CCOc1ccccc1)C(=O)c1nc(Cc2ccccc2)n(-c2ccc(S(N)(=O)=O)cc2)n1 [Example R-42] | 98 |
| CC(C)CCN(C)C(=O)c1nc(Cc2ccccc2)n(-c2ccc(S(N)(=O)=O)cc2)n1 [Example R-31] | 100 |
| NS(=O)(=O)c1ccc(-n2nc(C(=O)N3CCCN(C=O)CC3)nc2Cc2ccccc2)cc1 [Example R-27] | 99 |
| CCN(CCN(C)C)C(=O)c1nc(Cc2ccccc2)n(-c2ccc(S(N)(=O)=O)cc2)n1 [Example R-43] | 100 |
| CN(C(=O)c1nc(Cc2ccccc2)n(-c2ccc(S(N)(=O)=O)cc2)n1)C1CCCC1 [Example R-30] | 100 |

* * *

Molecular target: human CA-IV (Homo sapiens, UniProt P22748)
Construct: made in house; host or cells: Escherichia coli BL21(DE3)
Sequence (P22748 19-284 limits assumed): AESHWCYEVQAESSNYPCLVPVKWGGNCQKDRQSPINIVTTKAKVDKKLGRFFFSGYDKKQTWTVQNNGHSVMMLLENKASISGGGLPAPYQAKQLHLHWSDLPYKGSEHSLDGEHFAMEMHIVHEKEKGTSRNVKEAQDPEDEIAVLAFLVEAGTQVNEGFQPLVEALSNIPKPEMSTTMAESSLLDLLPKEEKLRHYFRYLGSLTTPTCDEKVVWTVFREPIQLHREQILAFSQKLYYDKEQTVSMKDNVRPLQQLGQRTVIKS
Assay: Carbonic Anhydrase-IV (CA-IV) Fluorescence Polarization Assay-IC50 Determination
Assay type: binding
Settings: read-out: IC50_CAIV
Description: Carbonic Anhydrase-IV (CA-IV) Fluorescence Polarization Assay-IC50 Determination These cells were grown in Luria broth (LB) media (Biomyx) supplemented with 800 uM ZnCl2 at 37° C. until an O.D.600 of 0.7, at which point the cells were induced with 100 uM isopropyl-beta-D-thiogalactopyranoside (IPTG) for 20 hours at 20° C. The frozen pellet was resuspended in 50mM 2-morpholinoethanesulfonic acid (MES) at pH 6.0, 100 mM NaCl, 800 uM ZnCl2 and EDTA-Free protease inhibitors (Roche). […]
pIC50: −log10 of the molar value.

| smilesRecord | valueModifier | pIC50 |
| --- | --- | --- |
| NS(=O)(=O)c1ccc(-n2nc(C(=O)O)cc2Cc2ccccc2)cc1 | = | 6.31 |
| NS(=O)(=O)c1ccc(-n2nc(CO)cc2Cc2ccccc2)cc1 | = | 6.36 |
| NS(=O)(=O)c1ccc(-n2nc3c(c2CN2CCOCC2)CCCC3)cc1 | ≤ | 5.30 |
| NS(=O)(=O)c1ccc(-n2nc(CN3CC=CCC3)cc2Cc2ccccc2)c(F)c1 | = | 6.45 |
| Cc1cc(C(=O)N(C)C)nn1-c1ccc(S(N)(=O)=O)cn1 | = | 5.62 |

* * *

molecular target: human CA-II (Homo sapiens); construct: purchased Sigma-Aldrich C6165; test: Carbonic Anhydrase-II (CA-II) Fluorimetric Assay-IC50 Determination; format: biochemical; conditions: read-out: IC50—CAII
readoutKind: IC50 (nM)

| smilesRecord | unitOfMeasurement | measuredResult |
| --- | --- | --- |
| Cc1nc(C(=O)O)nn1-c1ncc(S(N)(=O)=O)cn1 | nM | 57.9 |

* * *

inhibition at 0.2 µM values by entry
target: human CA-IV (Homo sapiens, UniProt P22748); construct: made in house; host or cells: Escherichia coli BL21(DE3); experiment: Carbonic Anhydrase-IV (CA-IV) Fluorescence Polarization Assay-IC50 Determination; assay type: binding; details: CA-IV Min dose 200 nM; read-out: CA-IV: % Inh @ Min dose
readoutKind: inhibition at 0.2 µM (%)

| molecule | measuredResult |
| --- | --- |
| CCCN(CC1CC1)C(=O)c1nc(Cc2ccccc2)n(-c2ccc(S(N)(=O)=O)cc2)n1 | 66.4 |
| CN(CCC#N)C(=O)c1nc(Cc2ccccc2)n(-c2ccc(S(N)(=O)=O)cc2)n1 | 58 |
| NS(=O)(=O)c1ccc(-n2nc(C(=O)N3CCOc4ccccc4C3)nc2Cc2ccccc2)cc1 | 59.1 |
| CCN(CCCCO)C(=O)c1nc(Cc2ccccc2)n(-c2ccc(S(N)(=O)=O)cc2)n1 | 50.2 |
| CCCCCN(C)C(=O)c1nc(Cc2ccccc2)n(-c2ccc(S(N)(=O)=O)cc2)n1 | 68.6 |
| CCCCN(CC)C(=O)c1nc(Cc2ccccc2)n(-c2ccc(S(N)(=O)=O)cc2)n1 | 59.7 |
| NS(=O)(=O)c1ccc(-n2nc(C(=O)N3CC4CCC3C4)nc2Cc2ccccc2)cc1 (stereo not shown) | 56.9 |
| CN(C)[C@H]1CCN(C(=O)c2nc(Cc3ccccc3)n(-c3ccc(S(N)(=O)=O)cc3)n2)C1 | 40.3 |
| NS(=O)(=O)c1ccc(-n2nc(C(=O)NCC3CCCCC3)nc2Cc2ccccc2)cc1 | 56.9 |
| CC(=O)N1CCCN(C(=O)c2nc(Cc3ccccc3)n(-c3ccc(S(N)(=O)=O)cc3)n2)CC1 | 56.9 |
| COC[C@H](C)NC(=O)c1nc(Cc2ccccc2)n(-c2ccc(S(N)(=O)=O)cc2)n1 | 53.6 |
| COc1cccc(CNC(=O)c2nc(Cc3ccccc3)n(-c3ccc(S(N)(=O)=O)cc3)n2)c1 | 53.6 |
| CN(C(=O)c1nc(Cc2ccccc2)n(-c2ccc(S(N)(=O)=O)cc2)n1)C1CCCCC1 | 69.3 |
| NS(=O)(=O)c1ccc(-n2nc(C(=O)N3CCCCC3)nc2Cc2ccccc2)cc1 | 48.6 |
| CCCCN(C)C(=O)c1nc(Cc2ccccc2)n(-c2ccc(S(N)(=O)=O)cc2)n1 | 66.4 |
| NS(=O)(=O)c1ccc(-n2nc(C(=O)N3CC(Oc4ccccc4)C3)nc2Cc2ccccc2)cc1 | 60.9 |
| CN(CC(O)c1ccccc1)C(=O)c1nc(Cc2ccccc2)n(-c2ccc(S(N)(=O)=O)cc2)n1 (stereo not shown) | 58 |
| N#CCCN(C(=O)c1nc(Cc2ccccc2)n(-c2ccc(S(N)(=O)=O)cc2)n1)C1CC1 | 63.6 |
| NS(=O)(=O)c1ccc(-n2nc(C(=O)NCC3(c4ccccc4)CC3)nc2Cc2ccccc2)cc1 | 62.3 |
| CCCCCN(CCO)C(=O)c1nc(Cc2ccccc2)n(-c2ccc(S(N)(=O)=O)cc2)n1 | 61.3 |
| NS(=O)(=O)c1ccc(-n2nc(C(=O)N(CCO)Cc3ccccc3)nc2Cc2ccccc2)cc1 | 57.7 |
| CC1(C)COCN1C(=O)c1nc(Cc2ccccc2)n(-c2ccc(S(N)(=O)=O)cc2)n1 | 58.2 |
| CN(CC1CC1)C(=O)c1nc(Cc2ccccc2)n(-c2ccc(S(N)(=O)=O)cc2)n1 | 65.2 |
| NS(=O)(=O)c1ccc(-n2nc(C(=O)N3CCc4ccccc4CC3)nc2Cc2ccccc2)cc1 | 74.3 |
| NS(=O)(=O)c1ccc(-n2nc(C(=O)NCc3n[nH]c4c3CCC4)nc2Cc2ccccc2)cc1 | 64.7 |

* * *

inhibition at 0.01 µM values by entry
molecular target: human CA-II (Homo sapiens, UniProt P00918); construct: purchased Sigma-Aldrich C6165; assay: Carbonic Anhydrase-II (CA-II) Fluorimetric Assay-IC50 Determination; format: biochemical; details: at 10 nM (c7); read-out: CA-II % inhibition at concentration of column 7

| compound | inhibition at 0.01 µM, % |
| --- | --- |
| NS(=O)(=O)c1ccc(-n2nc(C(=O)N3CCCC3Cc3cccnc3)nc2Cc2ccccc2)cc1 (stereo not shown) | 92 |
| Cc1cc(CN(C)C(=O)c2nc(Cc3ccccc3)n(-c3ccc(S(N)(=O)=O)cc3)n2)on1 | 94 |
| NS(=O)(=O)c1ccc(-n2nc(C(=O)N3CCCCC3Cc3ccccc3)nc2Cc2ccccc2)cc1 (stereo not shown) | 92 |
| CC(C)N(CC(O)c1ccccc1)C(=O)c1nc(Cc2ccccc2)n(-c2ccc(S(N)(=O)=O)cc2)n1 (stereo not shown) | 95 |
| NS(=O)(=O)c1ccc(-n2nc(C(=O)N3CCc4nocc4C3)nc2Cc2ccccc2)cc1 | 96 |
| CCCc1cc(CN(C)C(=O)c2nc(Cc3ccccc3)n(-c3ccc(S(N)(=O)=O)cc3)n2)n[nH]1 | 97 |
| NS(=O)(=O)c1ccc(-n2nc(C(=O)N3CCc4ccccc4C3)nc2Cc2ccccc2)cc1 | 96 |
